Catalogue of compounds with associated EC50
tested on: C15_C3 REPLICON; test: C15_C3 replicon assay; format: cell-based
Give the quantity in µM, number only.

Check out these entries, answers already filled in.
COMPOUND | UNIT_LABEL | EC50
Cc1cc(S(=O)(=O)N2CCN(C)CC2)[nH]c1C(=O)N[C@]12C(=O)c3c(N)cccc3[C@@]1(O)Oc1cc([C@H]3C[C@@H]3C)ccc12 [Example 14] | µM | 0.516
Cc1cc(S(=O)(=O)N2CCN(C)CC2)[nH]c1C(=O)NC12C(=O)c3c(N)cccc3C1(O)Oc1cc([C@H]3C[C@H]3C)ccc12 (stereo partly shown) [Example 24] | µM | 0.34
Cc1[nH]c(C(=O)NC23C(=O)c4c(N)cccc4C2(O)Oc2cc(C(C)C)ccc23)c(C)c1S(N)(=O)=O (stereo not shown) [Example 25] | µM | 2.04
Cc1cc(S(C)(=O)=O)[nH]c1C(=O)NC12C(=O)c3c(N)cccc3C1(O)Oc1cc([C@@H]3C[C@@H]3C)ccc12 (stereo partly shown) [Example 26] | µM | 8.37

Input line: Please supply the value of reported EC50 for the item Cc1cc(S(=O)(=O)N2CC[C@H](N(C)C)C2)[nH]c1C(=O)NC12C(=O)c3c(N)cccc3C1(O)Oc1cc([C@H]3C[C@@H]3C)ccc12 (mixture of isomers) [Example 11]
Output line: 2.54

Input line: Please supply the value of reported EC50 for the item C[C@H](O)[C@@H](C(=O)NC12C(=O)c3c(N)cccc3C1(O)Oc1cc([C@H](C)C3CC3)ccc12)N(C)C (stereo partly shown) [Example 10]
Output line: 0.632

Input line: Please supply the value of reported EC50 for the item C[C@@H](c1ccc2c(c1)O[C@]1(O)c3cccc(N)c3C(=O)[C@]21NC(=O)c1cccc(O)n1)C1CC1 [Example 8]
Output line: 5.33

Input line: Please supply the value of reported EC50 for the item Cc1cc(S(C)(=O)=O)[nH]c1C(=O)NC12C(=O)c3c(N)cccc3C1(O)Oc1cc(C3C[C@H]3C)ccc12 (stereo in doubt) [Example 21]
Output line: 2.91

Input line: Please supply the value of reported EC50 for the item Cc1c(S(C)(=O)=O)c[nH]c1C(=O)NC12C(=O)c3c(N)cccc3C1(O)Oc1cc(C3CCC3C)ccc12 (stereo not shown) [Example 7]
Output line: 1.62

----------
Catalogue of compounds with associated EC50
test system: HRV A16; assay: HRV A16 CPE inhibition assay; format: cell-based; conditions: Human rhinovirus sp.; HRV A16, cytopathic effect inhibition
Give the quantity in µM, number only.

Check out these entries, answers already filled in.
COMPOUND | ENDPOINT_LABEL | ENDPOINT_RESULT
Cc1c(S(C)(=O)=O)c[nH]c1C(=O)N[C@]12C(=O)c3c(N)cccc3[C@@]1(O)Oc1cc([C@@H]3C[C@H]3C)ccc12 | EC50 | 0.228
Cc1c(C(=O)N[C@]23C(=O)c4c(N)cccc4[C@@]2(O)Oc2cc([C@@H](C)C4CC4)ccc23)[nH]c(=O)n1C | EC50 | 0.05
C[C@H](c1ccc2c(c1)O[C@]1(O)c3cccc(N)c3C(=O)[C@]21NC(=O)[C@H]([C@H](C)O)N(C)C)C1CC1 | EC50 | 0.213

Input line: Please supply the value of reported EC50 for the item CCC(C)c1ccc2c(c1)OC1(O)c3cccc(N)c3C(=O)C21NC(=O)c1[nH]cc(S(C)(=O)=O)c1C (stereo not shown)
Output line: 0.071

Input line: Please supply the value of reported EC50 for the item C[C@H](c1ccc2c(c1)O[C@]1(O)c3cccc(N)c3C(=O)[C@]21NC(=O)c1cccc(O)n1)C1CC1
Output line: 0.057

Input line: Please supply the value of reported EC50 for the item Cc1cc(S(=O)(=O)N2CCN(C)CC2)[nH]c1C(=O)NC12C(=O)c3c(N)cccc3C1(O)Oc1cc([C@H]3C[C@H]3C)ccc12 (stereo partly shown)
Output line: 0.039

Input line: Please supply the value of reported EC50 for the item C[C@@H](c1ccc2c(c1)O[C@]1(O)c3cccc(N)c3C(=O)[C@]21NC(=O)CN1CCC1)C1CC1
Output line: 0.07
